- Test system: MOLT-4 leukemia
- PROTOCOL DETAILS: NCI tumour cell line growth inhibition, 48 h
OBSERVABLE: TGI

compound=O=c1[nH]c2ccccc2nc1/C=C(\O)C(F)F system_name="MOLT-4 leukemia" recorded_value="> 100 µM"
compound=CS(=O)(=O)N(CCC#N)c1ccc(/C=N/NC(=O)CC(=O)Nc2cccc(Cl)c2)cc1 system_name="MOLT-4 leukemia" recorded_value="> 100 µM"
compound="O=C(CC1(O)C(=O)Nc2ccc(Br)cc21)c1ccc(Cl)cc1 (stereo not given)" system_name="MOLT-4 leukemia" recorded_value="> 100 µM"
compound="O=C1CCC2CCc3cccc4oc1c2c34 (stereo not given)" system_name="MOLT-4 leukemia" recorded_value="> 100 µM"
compound=Cc1ccc(-n2c(O)c3c(N)n[nH]c3c(C#N)c2=O)cc1 system_name="MOLT-4 leukemia" recorded_value="> 100 µM"
compound=CCN(CC)c1ccc(N=C2C=C(C(=O)Nc3ccc(S(C)(=O)=O)cc3)C(=O)c3ccccc32)c(C)c1 system_name="MOLT-4 leukemia" recorded_value="> 100 µM"
compound=O=C1c2ccccc2-c2c1c1ccc([N+](=O)[O-])cc1c(=O)n2CCNCCCNCCn1c2c(c3ccc([N+](=O)[O-])cc3c1=O)C(=O)c1ccccc1-2 system_name="MOLT-4 leukemia" recorded_value="18.6 µM"
compound=COCN1CCN=c2c1c1c3c(c4ccccc4n23)CCC1 system_name="MOLT-4 leukemia" recorded_value="> 100 µM"
compound=O=C1C=C2CO[C@H]3OC[C@H](O)[C@@H]1[C@@H]23 system_name="MOLT-4 leukemia" recorded_value="> 100 µM"
compound=CN(C)CCOC(=O)c1ccc(N)cc1 system_name="MOLT-4 leukemia" recorded_value="61.5 µM"
